- Species on record: Rattus norvegicus
- ASSAY: Open TG-GATES - Regimen: Single
- Type: toxicity, organism-based, Sprague-Dawley
- Design: regimen Single, gender Male, age 6 weeks
- CONDITION PARAMETERS: in vivo, po, 10 mg/kg, 24 h, tissue Blood, route gavage, dose level Low
QUANTITY NAME: WBC (x10_2/uL)
Express your answer in x10_2/uL, writing the number without its unit.

Example results:
SMILES NOTATION: CN(C)CCN(Cc1cccs1)c1ccccn1
WBC [x10_2/uL]: 94
//
SMILES NOTATION: CN(C)CCCN1c2ccccc2CCc2ccccc21
WBC [x10_2/uL]: 76.3
//
SMILES NOTATION: CC1=C(/C=C/C(C)=C/C=C/C(C)=C/CO)C(C)(C)CCC1
WBC [x10_2/uL]: 81

Field: next molecule
Prompt: WBC for CN(C)CCCN1c2ccccc2CCc2ccc(Cl)cc21 ?
Response: 85.9
